Listing of entries alongside the reported pKd.
# measurement target: T1, RSV postfusion F (postF), subtype B (respiratory syncytial virus, subtype B)
# T1 construct: also called F ΔFP; Postfusion subtype B
# T1 sequence (P13843 26-109, chain 1 of 2): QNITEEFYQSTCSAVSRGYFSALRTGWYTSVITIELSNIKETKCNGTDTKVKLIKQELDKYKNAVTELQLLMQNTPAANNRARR
# T1 sequence (P13843 147-513, chain 2 of 2): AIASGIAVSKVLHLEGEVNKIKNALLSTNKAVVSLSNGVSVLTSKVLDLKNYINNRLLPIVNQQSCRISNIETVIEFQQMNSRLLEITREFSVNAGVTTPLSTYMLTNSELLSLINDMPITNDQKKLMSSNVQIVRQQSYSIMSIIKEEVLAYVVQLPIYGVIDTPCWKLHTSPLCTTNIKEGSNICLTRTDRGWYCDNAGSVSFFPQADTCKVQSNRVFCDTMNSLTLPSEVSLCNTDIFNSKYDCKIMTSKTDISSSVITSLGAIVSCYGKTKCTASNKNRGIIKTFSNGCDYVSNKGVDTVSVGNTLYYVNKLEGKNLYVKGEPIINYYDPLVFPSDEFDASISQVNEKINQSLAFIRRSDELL
# protocol details: BLI, IgG
Please note pKd is a logarithmic value: minus log10 of concentration in mol/L. Answer with that number alone.

[[record]]
binder = "ADI-21012 (antibody, V domains shown) VH: QVQLVQSGPAVVKPTQTLTLTCSFSGFSLSTSRMSVSWIRQPPGKALEWLARIDWDGDKYYSTSLKSRLTISKDTSKNQVVLTMTNMDPVDTATYYCARGSYYVSSGYYLNYFDYWGQGTLVTVSS VL: DIRMTQSPSSLSASVGDRVTITCRTSQTIASYLNWYQQKPGKAPNLLIYAASILQTGVPSRFSGSGSGTDFTLTISSLQPEDFATYYCQQSYGTPQTFGQGTKVEIK"
experimental_result = 9.55

[[record]]
binder = "ADI-14592 (antibody, V domains shown) VH: QVQLVQSGAEVKKPGESLKISCKGSGYTFTNYWIGWVRQMPGKGLEWMGIIYPDDSDTRYSPSFQGQVTISVDKSINTAYLQWSSLRASDTAIYYCACSNWPHYFDSWGQGTLVTVSS VL: NFMLTQPHSVSESPGKTVTISCTRSSGNIAGNYVQWYQQRPGSAPTTVIYEDNQRPSGVPDRFSGSIDSSSNSASLTISGLKTEDEAVYYCQSYHPGNWVFGGGTKLTVL"
experimental_result = 10.03


Give the measured pKd for ADI-14599 (antibody, V domains shown) VH: EVQLVESGGGLVQPGRSLRLSCKTSGFTFGDYAMSWVRQAPGQGLDWVGFIRTKAYGGTTEYAASVKGRFTLSRDDSKSIAYLQMNSLKTEDTAVYYCKSGGQFDYWGRGTLVTVSS VL: NFMLTQPHSVSGSPGKTVTISCTGSSGSIASNYVQWYQQRPGSAPTTVICEDNQRPSGVPDRFSGSIDSSSNSASLTISGLKTEDEADYYCQSYDRSNQEVFGGGTKLTVL
9.45
